studySystem: T1, TBD-17 (HC S104A)
T1 construct: Fab; also called HC S104A mutant
T1 sequence (VH, as listed by the source, chain 1 of 2): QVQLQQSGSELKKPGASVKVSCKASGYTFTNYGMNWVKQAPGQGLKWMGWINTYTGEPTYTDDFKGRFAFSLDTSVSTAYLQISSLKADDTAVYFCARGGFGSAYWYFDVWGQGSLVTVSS
T1 sequence (VL, as listed by the source, chain 2 of 2): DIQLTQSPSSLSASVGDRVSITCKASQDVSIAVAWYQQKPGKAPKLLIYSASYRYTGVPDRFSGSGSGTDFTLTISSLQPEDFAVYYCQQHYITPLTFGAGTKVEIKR
methodDescription: competition ELISA, peptide vs Fab binding to captured biotin-TROP2
Where no end group is shown, it is not given here.
# IC50 annotations
experimentalReadout: IC50

- binder: "VDFCYLYSWPICTK (cysteine pairing not given here; also: biotinylated, site not given here) [Peptide-40]"
  endpointResult: "7260 nM"
- binder: "VDFCGLYHWPICYQVY (cysteine pairing not given here; also: biotinylated, site not given here) [Peptide-41]"
  endpointResult: "1550 nM"
- binder: "VDFCGLYHWPICYQ (cysteine pairing not given here; also: biotinylated, site not given here) [Peptide-8]"
  endpointResult: "870 nM"

The origin of these recorded values is patent US20230357429A1.
